B1: ZNF449 (parent)
chain: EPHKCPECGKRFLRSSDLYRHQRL

- Variants of: B1
- method-summary: protein stability index of a GFP-peptide fusion (GPS, HEK-293T) (PSI 1-6); higher = more stable;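 note: lentivirally expressed fusions sorted by FACS into six bins by GFP to DsRed ratio, PSI derived from sequencing read proportions per bin multiplied by bin number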
- reported-conditions: c terminus: a fixed tail appended

[
  {
    "mutant-designation": "P2T",
    "protein stability index": 3.52
  },
  {
    "mutant-designation": "F12V",
    "protein stability index": 1.95
  },
  {
    "mutant-designation": "E1W",
    "protein stability index": 3.2
  },
  {
    "mutant-designation": "L13P",
    "protein stability index": 3.74
  },
  {
    "mutant-designation": "C5R",
    "protein stability index": 3.14
  },
  {
    "mutant-designation": "L18R",
    "protein stability index": 3.3
  },
  {
    "mutant-designation": "F12A",
    "protein stability index": 1.86
  },
  {
    "mutant-designation": "L24S",
    "protein stability index": 4.4
  },
  {
    "mutant-designation": "P2F",
    "protein stability index": 3.17
  }
]
